Reference for the values: patent US20220125947A1

Target: T1, T cell receptor (TCR) Vγ9 (TRGV9) (human, UniProt Q99603 21-122)
T1 chain (looked up): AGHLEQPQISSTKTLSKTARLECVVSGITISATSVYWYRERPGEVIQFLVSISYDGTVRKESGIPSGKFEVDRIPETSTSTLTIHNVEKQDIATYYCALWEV
Assay: cell-based or functional assay
Assay metric: Vg9 T cell %, flow staining (%)
Provide the reading as a plain figure in %.

Exercise: Field request: Vg9 T cell %, flow staining | item: VG9B127 (antibody, human IgG1, kappa, V domains shown) VH: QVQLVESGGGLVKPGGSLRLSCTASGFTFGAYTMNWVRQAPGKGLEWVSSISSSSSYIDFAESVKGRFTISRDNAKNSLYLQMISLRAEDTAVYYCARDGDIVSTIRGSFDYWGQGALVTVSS VL: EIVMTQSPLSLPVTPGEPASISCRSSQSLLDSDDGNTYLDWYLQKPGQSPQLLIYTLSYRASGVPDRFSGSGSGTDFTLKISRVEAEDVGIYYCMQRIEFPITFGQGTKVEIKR
Key: 11.2

Exercise: Requested field: Vg9 T cell %, flow staining. Item: VG9B67 (antibody, human IgG1, kappa, V domains shown) VH: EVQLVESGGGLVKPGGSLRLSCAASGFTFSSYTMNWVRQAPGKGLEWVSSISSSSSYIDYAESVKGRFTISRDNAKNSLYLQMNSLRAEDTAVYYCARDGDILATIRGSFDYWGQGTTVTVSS VL: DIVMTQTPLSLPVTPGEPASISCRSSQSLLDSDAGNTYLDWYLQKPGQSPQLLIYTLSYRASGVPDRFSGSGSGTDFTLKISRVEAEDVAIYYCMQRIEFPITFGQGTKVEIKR
Key: 14

Exercise: Would you kindly share the measured Vg9 T cell %, flow staining for VG9B33 (antibody, human IgG1, kappa, V domains shown) VH: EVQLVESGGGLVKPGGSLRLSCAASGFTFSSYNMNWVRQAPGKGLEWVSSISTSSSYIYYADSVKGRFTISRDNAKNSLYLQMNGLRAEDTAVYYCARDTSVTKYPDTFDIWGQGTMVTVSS VL: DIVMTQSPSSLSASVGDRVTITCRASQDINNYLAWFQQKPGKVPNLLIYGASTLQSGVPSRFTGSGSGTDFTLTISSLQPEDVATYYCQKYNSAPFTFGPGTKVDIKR ?
Key: 14

Exercise: Bench note: what Vg9 T cell %, flow staining did VG9B44 (antibody, human IgG1, kappa, V domains shown) VH: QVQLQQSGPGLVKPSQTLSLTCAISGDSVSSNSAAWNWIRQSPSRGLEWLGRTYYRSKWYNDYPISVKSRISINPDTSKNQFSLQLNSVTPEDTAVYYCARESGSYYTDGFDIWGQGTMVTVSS VL: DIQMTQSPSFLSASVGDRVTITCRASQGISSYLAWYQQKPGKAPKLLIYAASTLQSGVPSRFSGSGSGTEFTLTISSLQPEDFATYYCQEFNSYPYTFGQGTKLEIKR show?
Key: 14.4

Exercise: Given the entry VG9B162 (antibody, human IgG1, lambda, V domains shown) VH: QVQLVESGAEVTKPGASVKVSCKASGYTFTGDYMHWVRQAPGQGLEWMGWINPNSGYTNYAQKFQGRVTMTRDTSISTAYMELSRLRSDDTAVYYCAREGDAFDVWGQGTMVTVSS VL: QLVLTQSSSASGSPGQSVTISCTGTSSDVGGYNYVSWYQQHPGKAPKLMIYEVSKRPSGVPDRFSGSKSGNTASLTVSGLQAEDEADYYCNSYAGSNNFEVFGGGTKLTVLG , report its measured Vg9 T cell %, flow staining.
Key: 2.7
